- targetDesc: HGFR (c-Met) (Homo sapiens, UniProt P08581)
- Sequence (P08581 974-1390): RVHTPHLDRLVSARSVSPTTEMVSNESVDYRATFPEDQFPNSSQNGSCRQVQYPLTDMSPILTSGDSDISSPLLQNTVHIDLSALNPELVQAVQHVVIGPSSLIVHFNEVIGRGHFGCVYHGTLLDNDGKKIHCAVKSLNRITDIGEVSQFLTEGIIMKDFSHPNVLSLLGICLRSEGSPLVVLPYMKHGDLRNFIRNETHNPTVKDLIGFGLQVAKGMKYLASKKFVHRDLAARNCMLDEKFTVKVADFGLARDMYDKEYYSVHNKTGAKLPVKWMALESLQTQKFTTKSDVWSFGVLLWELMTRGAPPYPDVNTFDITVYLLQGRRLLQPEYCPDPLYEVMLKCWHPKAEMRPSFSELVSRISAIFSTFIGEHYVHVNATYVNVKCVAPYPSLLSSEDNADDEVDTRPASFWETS
- assayName: HGFR Continuous-Coupled Spectrophotometric Assay
- Type: biochemical
- conditions: compound at 1 μM
inhibition at 1 µM vs 90%: at or above is 1, below is 0.

molecule="Nc1ncc(Br)cc1OC1CCCCc2ccc(F)cc21 (stereo not shown)" categorylabel=0
molecule="CC(Oc1cc(-c2ccc(C(=O)N3CCC(N4CCCC4)CC3)cc2)cnc1N)c1cccc(C(=O)NCCc2cccc(O)c2)c1 (stereo not shown)" categorylabel=0

Hi team, for CC(Oc1cc(-c2ccc(C(=O)NCCCN)cc2)cnc1N)c1c(Cl)ccc(F)c1Cl (stereo not shown) , is the recorded inhibition at 1 µM at or above 90%?
0

Hi team, for CC(Oc1cc(-c2ccc(C(=O)N3CCS(=O)(=O)CC3)cc2)cnc1N)c1c(Cl)ccc(F)c1Cl (stereo not shown) , is the recorded inhibition at 1 µM at or above 90%?
1

Hi team, for COCCN1CCN(C(=O)c2ccc(-c3cnc(N)c(OC(C)c4c(Cl)ccc(F)c4Cl)c3)cc2)CC1 (stereo not shown) , is the recorded inhibition at 1 µM at or above 90%?
1

Hi team, for CC(Oc1cc(-c2ccc(C(=O)NCC3CCNCC3)cc2)cnc1N)c1c(Cl)ccc(F)c1Cl (stereo not shown) , is the recorded inhibition at 1 µM at or above 90%?
0

Hi team, for CC(Oc1cc(-c2ccc(C(=O)NC3CCNCC3)cc2)cnc1N)c1c(Cl)ccc(F)c1Cl (stereo not shown) , is the recorded inhibition at 1 µM at or above 90%?
0
